- Target Under Test: KRas Q61H mutant (Homo sapiens, UniProt P01116, Q61H)
- Construct: made in house
- Protocol Summary: Ras GTP binding domain inhibition assay (labeled-GTP competition, cell-free)
- Test Settings: at 20 μM, without SOS; read-out: KRas Q61H mutant: % inh.

# Compound, inhibition at 20 µM
records = [
    ("Cc1c(-c2ccn(C(C)C)n2)sc2nc(-c3nccn3C)nc(NCc3c[nH]cn3)c12 [Compound 59]", "51 to 75%"),
    ("CO[C@H]1CC[C@@H](Nc2nc(-c3nccn3C)nc3sc(-c4ccn(C(C)C)n4)c(C(F)(F)F)c23)C1 (racemic) [Compound 73]", "51 to 75%"),
    ("O=C(c1nc(O)c2scc(-c3ccccn3)c2n1)N1CCOCC1 [Compound 22]", "1 to 25%"),
    ("COCC1CCN(c2nc(-c3nccn3C)nc3sc(-c4ccn(C(C)C)n4)c(-c4ccccc4)c23)C1 (racemic) [Compound 76]", "26 to 50%"),
    ("O=C(Nc1ccccn1)c1nc(O)c2scc(-c3ccccn3)c2n1 [Compound 24]", "1 to 25%"),
    ("COCCNC(=O)c1nc(N[C@@H]2CC[C@H](OC)C2)c2ccsc2n1 (racemic) [Compound 14]", "0%"),
    ("COCC1CN(c2nc(-c3nccn3C)nc3sc(-c4ccn(C(C)C)n4)c(C)c23)CCO1 (racemic) [Compound 45]", "76 to 100%"),
    ("COC1CCCN(c2nc(-c3nccn3C)nc3sc(-c4ccn(C(C)C)n4)c(-c4ccccc4)c23)C1 (racemic) [Compound 77]", "1 to 25%"),
    ("COC1CCCN(c2nc(-c3nccn3C)nc3sc(-c4ccn(C(C)C)n4)c(C)c23)C1 (racemic) [Compound 40]", "51 to 75%"),
    ("COCCn1c(-c2nc(O)c3scc(-c4ccccn4)c3n2)nc2ccccc21 [Compound 87]", "1 to 25%"),
]

---

- Test system: MIA-PaCa-2 pancreatic cancer cell line (KRAS G12C)
- Protocol Summary: Cell proliferation assay (CellTiter 96 Aqueous One)
- Type: cell-based
- Test Settings: Homo sapiens, MIA PaCa-2, MIA PaCa-2
// IC50 lookup, one value per entry

# Molecule, IC50
rows = [
    ("CO[C@H]1CC[C@@H](Nc2nc(C(N)=O)nc3sccc23)C1 (racemic)", "> 10 µM"),
    ("Oc1nc(-c2nccn2CCOCc2ccccc2)nc2c(-c3ccccn3)csc12", "5 to 10 µM"),
    ("CO[C@H]1CC[C@@H](Nc2nc(C(=O)Nc3ccccn3)nc3sccc23)C1 (racemic)", "> 10 µM"),
    ("CO[C@H]1CC[C@@H](Nc2nc(-c3nccn3C)nc3sc(-c4ccn(C(C)C)n4)c(C)c23)CC1", "< 1 µM"),
    ("COCCNc1nc(-c2nccn2C)nc2sc(-c3ccn(C(C)C)n3)c(C)c12", "5 to 10 µM"),
    ("COCCNC(=O)c1nc(O)c2scc(-c3ccccn3)c2n1", "> 10 µM"),
    ("CO[C@H]1CC[C@@H](Nc2nc(C(=O)N3CCOCC3)nc3sccc23)C1 (racemic)", "> 10 µM"),
    ("COC[C@@H]1CC[C@@H]1CNc1nc(-c2nccn2C)nc2sc(-c3ccn(C(C)C)n3)c(C)c12 (racemic)", "< 1 µM"),
]
